Tested on: HEK293
Test: Cytotoxic Profiling of Annotated Libraries Using Quantitative High-Throughput Screening (AID 1296008); note: nearly all actives have a fitted effect of over 60% in size
Conditions: Five cell lines viability, CellTiter-Glo ATP luminescence, 48-72 h
Records with an inconclusive call do not appear. Calls of active or inactive are those of the source. Calls come from the whole dose curve; as a rule, active = well fitted inhibition curve with a large enough effect; inconclusive = small, poorly fitted or top-dose-only effect; inactive = flat fitted curve, though single readings scatter.
reported-metric: outcome

molecule=Cc1c(Cl)cccc1Nc1ccccc1C(=O)O reported_metric=outcome recorded_result=inactive
molecule=CCn1cc(C(=O)O)c(=O)c2cnc(N3CCNCC3)nc21 reported_metric=outcome recorded_result=inactive
molecule="CN1CCOC(c2ccccc2)c2ccccc2C1 (configuration not stated)" reported_metric=outcome recorded_result=inactive
molecule=O=C(O)[C@@H]1CSCN1 reported_metric=outcome recorded_result=inactive
molecule="N[C@H]1C(O)O[C@H](CO)[C@@H](O)[C@@H]1O (some centres not stated)" reported_metric=outcome recorded_result=inactive
molecule=O=C1O[C@H](CO)[C@@H](O)[C@H](O)[C@H]1O reported_metric=outcome recorded_result=inactive
molecule=N[C@@H](CSSC[C@H](N)C(=O)O)C(=O)O reported_metric=outcome recorded_result=inactive
molecule=CCOC(=O)[C@H](CCc1ccccc1)N[C@@H](C)C(=O)N1C(=O)N(C)C[C@H]1C(=O)O reported_metric=outcome recorded_result=inactive
molecule=O=Cc1ccccc1C=O reported_metric=outcome recorded_result=inactive
molecule=COc1cc2[nH]c(=O)[nH]c(=O)c2cc1OC reported_metric=outcome recorded_result=inactive
molecule=C=CCn1c(=O)n([C@@H]2O[C@H](CO)[C@@H](O)[C@H]2O)c2nc(N)[nH]c(=O)c21 reported_metric=outcome recorded_result=inactive
molecule="CC(C)(C)NCC(O)COc1ccc(NC(=O)NC2CCCCC2)cc1 (configuration not stated)" reported_metric=outcome recorded_result=inactive

====

Molecular target: Protein phosphatase 1D (Homo sapiens)
Assay: RapidFire Mass Spectrometry qHTS Assay for Modulators of WT P53-Induced Phosphatase 1 (WIP1) (AID 1347424);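 note: amount of dephosphorylated VEPPL-S-QETFS peptide product formed by WIP1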
Conditions: WIP1 dephosphorylation of phosphopeptide, RapidFire MS; series mostly up to 63 µM
Results filed as inconclusive are left out. Active and inactive are the calls of the source. Calls come from the whole dose curve; as a rule, active = well fitted inhibition curve with a large enough effect; inconclusive = small, poorly fitted or top-dose-only effect; inactive = no such curve, though single readings can be large or run the other way.
reported-metric: activity change, negative = inhibition

compound="CN1[C@@H]2CC(OC(=O)[C@H](CO)c3ccccc3)C[C@H]1[C@@H]1O[C@@H]12 (some centres not stated)" reported_metric="activity change, negative = inhibition" recorded_result=inactive
compound="NC1[C@H]2CN(c3nc4c(cc3F)c(=O)c(C(=O)O)cn4-c3ccc(F)cc3F)C[C@@H]12 (some centres not stated)" reported_metric="activity change, negative = inhibition" recorded_result=inactive
compound="CC(CN(C)C)CN1c2ccccc2CCc2ccccc21 (configuration not stated)" reported_metric="activity change, negative = inhibition" recorded_result=inactive
compound=O=C(O)Cc1sc(-c2ccccc2)nc1-c1ccc(Cl)cc1 reported_metric="activity change, negative = inhibition" recorded_result=inactive
compound=CNC(=O)Oc1ccc2c(c1)[C@]1(C)CCN(C)[C@@H]1N2C reported_metric="activity change, negative = inhibition" recorded_result=inactive
compound=NC(=O)N/N=C/c1ccc([N+](=O)[O-])o1 reported_metric="activity change, negative = inhibition" recorded_result=inactive
compound=CC(=O)Oc1ccc(C2(c3ccc(OC(C)=O)cc3)C(=O)Nc3ccccc32)cc1 reported_metric="activity change, negative = inhibition" recorded_result=inactive
compound="CC(O)CN(CCN(CC(C)O)CC(C)O)CC(C)O (configuration not stated)" reported_metric="activity change, negative = inhibition" recorded_result=inactive
compound=CC1=C(C/C=C(\C)CCC[C@H](C)CCC[C@H](C)CCCC(C)C)C(=O)c2ccccc2C1=O reported_metric="activity change, negative = inhibition" recorded_result=inactive
compound=Cc1cc(CC(=O)O)n(C)c1C(=O)c1ccc(Cl)cc1 reported_metric="activity change, negative = inhibition" recorded_result=inactive
compound=NC1CCN(c2cccc(Cl)n2)CC1 reported_metric="activity change, negative = inhibition" recorded_result=inactive
compound=CCCCCCCCCCCCOS(=O)(=O)O reported_metric="activity change, negative = inhibition" recorded_result=inactive
compound=C[C@H]1O[C@H](O[C@H]2[C@H](O)[C@@H](O)[C@@H](O[C@H]3[C@H](O)[C@@H](O)[C@H](O)O[C@@H]3CO)O[C@@H]2CO)[C@H](O)[C@@H](O)[C@@H]1N[C@H]1C=C(CO)[C@@H](O)[C@H](O)[C@H]1O reported_metric="activity change, negative = inhibition" recorded_result=inactive
compound=CC(C)C(=O)c1c(C(C)C)nn2ccccc12 reported_metric="activity change, negative = inhibition" recorded_result=inactive
compound=CCOC(=O)[C@H](CCc1ccccc1)N[C@@H](C)C(=O)N1C(=O)N(C)C[C@H]1C(=O)O reported_metric="activity change, negative = inhibition" recorded_result=inactive
compound=C[C@]12C[C@H](O)[C@H]3[C@@H](CCC4=CC(=O)CC[C@@]43C)[C@@H]1CC[C@@H]2C(=O)CO reported_metric="activity change, negative = inhibition" recorded_result=inactive
compound=CC(C)(C)C(=O)NCCCC(=O)O reported_metric="activity change, negative = inhibition" recorded_result=inactive
compound=C#CCN(C)Cc1ccccc1 reported_metric="activity change, negative = inhibition" recorded_result=inactive
compound="CCN(CC)C(C)CN1c2ccccc2Sc2ccccc21 (configuration not stated)" reported_metric="activity change, negative = inhibition" recorded_result=inactive
compound="CC1CC(OC(=O)C(O)c2ccccc2)CC(C)(C)N1C (configuration not stated)" reported_metric="activity change, negative = inhibition" recorded_result=inactive
compound=O=C(O)COc1nn(Cc2ccccc2)c2ccccc12 reported_metric="activity change, negative = inhibition" recorded_result=inactive
compound=NCC(=O)CCC(=O)O reported_metric="activity change, negative = inhibition" recorded_result=inactive
